target: TaqEH (Thermus aquaticus, UniProt P19821 1-832, A743H); assay: EMSA; 5 mM Mg2+; apparent Kd; EMSA: 3 nM DNA, 20 mM Tris-HCl pH 8.8, 10 mM NaCl, 5 mM MgCl2, 14 mM 2-mercaptoethanol, 0.1 mg/ml BSA, 5% glycerol, 40 C, 5 min; 1% agarose gel; settings: protein: recombinant; label: 32P on 27mer; primer-template; 27 bp duplex, 5' overhang 22 nt on the 49mer template
Sequence (P19821 whole entry A743H): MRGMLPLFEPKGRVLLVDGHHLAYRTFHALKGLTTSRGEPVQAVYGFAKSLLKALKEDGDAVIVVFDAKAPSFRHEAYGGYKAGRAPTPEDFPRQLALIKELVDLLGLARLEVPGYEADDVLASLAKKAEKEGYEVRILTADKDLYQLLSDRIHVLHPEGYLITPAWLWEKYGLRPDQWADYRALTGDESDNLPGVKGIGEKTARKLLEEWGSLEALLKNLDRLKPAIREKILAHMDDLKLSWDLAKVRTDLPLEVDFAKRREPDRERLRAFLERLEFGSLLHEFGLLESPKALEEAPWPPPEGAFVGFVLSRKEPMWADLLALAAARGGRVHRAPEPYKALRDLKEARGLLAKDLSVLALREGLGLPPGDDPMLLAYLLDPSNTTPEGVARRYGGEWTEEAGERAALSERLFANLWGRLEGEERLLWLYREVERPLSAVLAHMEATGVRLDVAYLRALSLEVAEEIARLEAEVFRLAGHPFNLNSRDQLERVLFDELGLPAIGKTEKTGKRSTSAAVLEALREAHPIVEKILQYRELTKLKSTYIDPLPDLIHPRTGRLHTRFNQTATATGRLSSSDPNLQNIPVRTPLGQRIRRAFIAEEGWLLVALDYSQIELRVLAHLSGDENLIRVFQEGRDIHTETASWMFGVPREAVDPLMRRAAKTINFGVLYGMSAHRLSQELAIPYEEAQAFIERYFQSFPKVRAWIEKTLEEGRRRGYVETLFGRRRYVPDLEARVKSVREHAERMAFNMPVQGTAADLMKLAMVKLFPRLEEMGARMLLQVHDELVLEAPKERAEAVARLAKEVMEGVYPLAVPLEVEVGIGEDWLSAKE
Property label: Kd (nM)
Give just the numeric value; nM need not be written.

Ask: Consider the binder primed DNA (27mer/49mer) (dsDNA) DNA 1: AGCTATGACCATGATTACGAATTGCTT DNA 2: AGCTACCATGCCTGCACGAATTAAGCAATTCGTAATCATGGTCATAGCT and give its measured Kd.
Result: 6
